Origin of values: patent US20240116985A1

- TARGET DESC: full-length beta-Catenin (Uniprot ID P35222) (Homo sapiens (Human)) (UniProt P35222)
- ASSAY: fluorescence polarization competition; full-length beta-catenin, competitor 5FAM-TCF4(10-53)
pIC50: −log10 of the molar value. Starred links: 1 amine or outer side, 2 acyl side, 3 side chain; linkers in the order of their positions; H or OH if unused. Positions of bridges follow the written chain, without caps; N, C: chain ends. Non-standard residues stand in square brackets, D forms with d. Primed or numbered codes have the meaning given here. PyrS2″ = (S)-3-amino-1-((pent-4-en-1-yloxy)carbonyl)pyrrolidine-3-carboxylic acid (stapling residue), C=CCCCOC(=O)N1CC[C@@](N[*:1])(C(=O)[*:2])C1; B5(4) = 2,2-bis(4-pentenyl)glycine = 2-amino-2-(pent-4-en-1-yl)hept-6-enoic acid (stitching residue), C=CCCCC(CCCC=C)(N[*:1])C(=O)[*:2]; B5(5) = 2,2-bis(4-pentenyl)glycine, 2-amino-2-(pent-4-en-1-yl)hept-6-enoic acid (stitching residue), C=CCCCC(CCCC=C)(N[*:1])C(=O)[*:2]; TfeGA = (S)-2-amino-3-((carboxymethyl)(2,2,2-trifluoroethyl)amino)propanoic acid, O=C([C@H](CN(CC(=O)[*:3])CC(F)(F)F)N[*:1])[*:2]; PyrS2 = (S)-3-amino-1-((pent-4-en-1-yloxy)carbonyl)pyrrolidine-3-carboxylic acid, C=CCCCOC(=O)N1CC[C@@](N[*:1])(C(=O)[*:2])C1; Phe(3-COOH) = N[C@@H](Cc1cccc(C(=O)O)c1)C(=O)O; Phe(2-CF3) = N[C@@H](Cc1ccccc1C(F)(F)F)C(=O)O; Bta = N[C@@H](Cc1csc2ccccc12)C(=O)O; Lys(iPr) = CC(C)NCCCC[C@H](N)C(=O)O; αAllylPro = C=CC[C@@]1(C(=O)O)CCCN1; tBuAla = CC(C)(C)C[C@H](N)C(=O)O; 3Thi = N[C@@H](Cc1ccsc1)C(=O)O
Given measured pIC50, output Criterion met if it is greater than or equal to 7 and Criterion not met if not.

See these solved cases before continuing.
# BINDER, GROUP
measured = [
    ("Ac-[αAllylPro]D[tBuAla][B5(4)]D[TfeGA]AAFL[PyrS2″][3Thi][Bta]L-NH2 (staple 1-4, 4-11; also: -CH=CH- in each staple reduced to -CH2-CH2-) [I-1753]", "Criterion not met"),
    ("Ac-[αAllylPro]D[tBuAla][B5(4)]D[TfeGA][Lys(iPr)]AFL[PyrS2″][3Thi][Bta]F-NH2 (staple 1-4, 4-11; also: -CH=CH- in each staple reduced to -CH2-CH2-) [I-1767]", "Criterion not met"),
    ("Ac-[αAllylPro]D[tBuAla][B5(4)]D[TfeGA]AAFL[PyrS2″][3Thi][Bta]V-NH2 (staple 1-4, 4-11; also: -CH=CH- in each staple reduced to -CH2-CH2-) [I-1757]", "Criterion not met"),
]

Switching to the query record.
Threshold query (pIC50 >= 7) on Ac-[αAllylPro]D[tBuAla][B5(5)]D[Phe(3-COOH)]AAFL[PyrS2][Phe(2-CF3)][Bta]QLN-NH2 (staple 1-4, 4-11) [I-2390] Criterion met
